Assay: yeast display, Sf9 membrane polyspecificity reagent, FACS + sequencing; frameworks hold sequencing errors
ENDPOINT: polyreactivity (PSR sort gate)

>  <CHAIN_SEQUENCE>
QVQLVESGGGLVQAGGSLRLSCAASGRTFYYNAMGWYRQAPGKERELVAAITSRGTTYYADSVKGRFTISRDNAKNTVYLQMNSLKPEDTAVYYCAALALYRAQGNLDYWGQGTQVTVSS

>  <ENDPOINT>
polyreactivity (PSR sort gate)

>  <MEASURED_VALUE>
high polyreactivity

$$$$
>  <CHAIN_SEQUENCE>
QVQLVESGGGLVQAGGSLRLSCAASGLTFQSYDMGWYRPAPGKERELVAAISRRGGSTYYADSVKGRFTISRDNAKNTVYLQLNSLKPEDTAVYYCAAETYYTYWPYGMGYWGQGTQVTVSS

>  <ENDPOINT>
polyreactivity (PSR sort gate)

>  <MEASURED_VALUE>
high polyreactivity

$$$$

* * *

Assay: yeast display, Sf9 membrane polyspecificity reagent, FACS + sequencing; frameworks hold sequencing errors

>  <CHAIN_SEQUENCE>
QVQLVESGGGLVQAGGSLRLSCAASGSIFYLYAMGWYRQAPGKERELVARITWSGGRTFYADSVKGRFTISRDNAKNTVYLQMNSLKPEDTAVYYCNARYHGKYDYWGQGTQVTVSS

>  <polyreactivity (PSR sort gate)>
high polyreactivity

$$$$
>  <CHAIN_SEQUENCE>
QVQLVESGGGLVQAGGSLRLSCAASGSIFRVYAMGWYRQAPGKERELVAAISWGGGTTYYADSVKGRFTISRDNAKNTVYLQMNSLKPEDTAVYYCNKVGVRSGARSIYVVRRYEYWGQGTQVTVSS

>  <polyreactivity (PSR sort gate)>
high polyreactivity

$$$$
>  <CHAIN_SEQUENCE>
QVQLVESVGGLVQAGGSLRLSCAASGSTIQGNSMGWYRQAHGKERELVAAISRSGGSTYADSVKGRFTISRDNAKNTVYLEMHSLKPEDTAVFYCAAYSGVGYLWFDYWGQGTQVTVSS

>  <polyreactivity (PSR sort gate)>
low polyreactivity

$$$$
>  <CHAIN_SEQUENCE>
QVQLVESGGGLVQAGGSLRLSCAASGSILGNAMGWYRQAPGKERELVAAISRNGDSTYYADSVKGRFTISRDNAKNTVYLQMNSLKPEDTAVYYCNAQWFFYGYIAGDYWGQGTQVTVSS

>  <polyreactivity (PSR sort gate)>
high polyreactivity

$$$$
>  <CHAIN_SEQUENCE>
QVQLVESGGGLVHAGGSLLLSCSASGRTFDSNAMGWSRQAPGKERELVAAISGSGDTTYYADSVKGRFTISRDNAKNTVYLQMNSLKPEDTAVYYCADDHDSSGSGYEYWGQGTEVTVSS

>  <polyreactivity (PSR sort gate)>
low polyreactivity

$$$$
>  <CHAIN_SEQUENCE>
QVQLVESGGGLVQAGGSLRLSCAASGFTFYTKAMGWYRQAPGKERELVAGINSGSSTYYADSVKGRFTISRDNAKNTVYLQMNSLKPEDTAVYYCAARRSRYILRGFGYWGQGTQVTVSS

>  <polyreactivity (PSR sort gate)>
high polyreactivity

$$$$
>  <CHAIN_SEQUENCE>
QVQLVESGGGLVQAGGSLRLSCAASGRTFVYYDMGWSRPAPGKERELVAAIDSSGSTYYADSVKGRFTISRDNAKNTVYLQMNSLKPEDTAVYYCAAGYWFFPYWYDYWGQGTQVTVSS

>  <polyreactivity (PSR sort gate)>
high polyreactivity

$$$$
>  <CHAIN_SEQUENCE>
QVQLVESGGGLVQAGGSLRLSCAASGRTFYFYTMGWYRQAPGKERELVAAITLSGVSTYYADSVKGRFTISRDNAKITVYLQMNSLKPEDTAVYYCNAVYIRPGYRRYDYWGQGTQVTVSS

>  <polyreactivity (PSR sort gate)>
high polyreactivity

$$$$
>  <CHAIN_SEQUENCE>
QVQLVESGGGLVQAGGSLRLSCADSGSTFYTNAMGWYRQAPGKERELVAAINRSGGRTYYADSVKGRFTISRDNAKNTVYLQMNSLKPEDPAVYYCAARYPVRFSTDTARDYYWGQGTQVTVSS

>  <polyreactivity (PSR sort gate)>
low polyreactivity

$$$$
>  <CHAIN_SEQUENCE>
QVQLVESGGGLVQAGGSLRLSCAASGFILDNYAMGWYRQAPGKERELVAAISGSGGSTYYADSVKGRFTISRDNAKNTVYLQMNSLKPEDTAVYYCNRDRLLRQYDYWGQGTQVTVSS

>  <polyreactivity (PSR sort gate)>
high polyreactivity

$$$$
>  <CHAIN_SEQUENCE>
QVQLVESGGGLVQAGGSLRLSCAASGFTFGVYAMGWYRQAPGKERELVATISSSGSTNYADSVKGRFTISRDNAQNPVYLQMNSLKPEDTAVYYCAVYYLYRRRQYYYWGQGTQVTVSS

>  <polyreactivity (PSR sort gate)>
low polyreactivity

$$$$

* * *

Assay: yeast display, Sf9 membrane polyspecificity reagent, FACS + sequencing; frameworks hold sequencing errors
ENDPOINT: polyreactivity (PSR sort gate)

>  <CHAIN_SEQUENCE>
QVQLVESGGGLVQAGGSLRLSCAASGSIFDPYAMGWYRQAPGKERELVARISRSGGSTNYADSVKGRFTISRDNAKNTVYLQMNSLKPEDTAVYYCNTPSSREMDYWGQGTQVTVSS

>  <ENDPOINT>
polyreactivity (PSR sort gate)

>  <MEASURED_VALUE>
low polyreactivity

$$$$
>  <CHAIN_SEQUENCE>
QVQLVESGGGLVQAGGSLRLSCAASGFTFALYTMGSYRQAPGKERELVAAIRSTGSTYADSVKGRFTISRDNAKNTVYLQMNSLKPEDTAVYYCAAQYWRRKKYYYWGQGTQVTVSS

>  <ENDPOINT>
polyreactivity (PSR sort gate)

>  <MEASURED_VALUE>
high polyreactivity

$$$$
>  <CHAIN_SEQUENCE>
QVHLVVSGGGLVQAGGSLRLSCAASGRTFIRYAMGWYRQAPWKESELVAAITQSGGRTYYADSVKGRFTISRDNAKNTVYLQMNSLIPEDTAVYYCAAIGRYAFYYPRDYWGQGTQVTVSS

>  <ENDPOINT>
polyreactivity (PSR sort gate)

>  <MEASURED_VALUE>
high polyreactivity

$$$$
>  <CHAIN_SEQUENCE>
QVQLVESGGGLVQAGGSLRLSCAASGITFIRYAMGWYRQAPGKERELVAVITRSGGRTYYADSVKGRFTISRDNAKNTVYLQMNILKPEDTAVYYCAARAYGYDEYEYWGQGTQVTVSS

>  <ENDPOINT>
polyreactivity (PSR sort gate)

>  <MEASURED_VALUE>
high polyreactivity

$$$$
>  <CHAIN_SEQUENCE>
QVQLVESGGVLVQAGGSLRLSCAASGSTSYNNAMGWYREAPGKEREFVAAISSNGDRTYYADSVKGRFTISRDNPKNTVYLLMNSLKPEDTAVFYCAVRSWYNYEWGQGTQVTVSS

>  <ENDPOINT>
polyreactivity (PSR sort gate)

>  <MEASURED_VALUE>
high polyreactivity

$$$$
>  <CHAIN_SEQUENCE>
QVQLEESAGRLVQAGGSLRLSCAASGFIISPYAMGWYRQAPGKERELVAAISWSGVYTYYADTVKGRFTISRDNAKNTVYLQMNSLKPEDSAVYYCATYGTVYYWGQGTQVTVST

>  <ENDPOINT>
polyreactivity (PSR sort gate)

>  <MEASURED_VALUE>
high polyreactivity

$$$$
>  <CHAIN_SEQUENCE>
QVQLVESGGGLVQAGGSLRLSCAASGRIFNQYGMGWYRQAPGKERELVAAIRSGDSTNYADSVKGRFTISRDNAKNTVYLQMNSLKPEDTAVYYCARDFSPGSSDPKASISFDHWGQGTQVTVSS

>  <ENDPOINT>
polyreactivity (PSR sort gate)

>  <MEASURED_VALUE>
low polyreactivity

$$$$
>  <CHAIN_SEQUENCE>
QVQLVESGGGLVQAGGSLRLSCAASGIIFRPYAMGWYRQAPGKERELVAAITGSGVSTYYADSVKGRFTISRDNAKNTVYLQMNSLKPEDTAVYYCAARYDVHYDGMDYWGQGTQVTVSS

>  <ENDPOINT>
polyreactivity (PSR sort gate)

>  <MEASURED_VALUE>
low polyreactivity

$$$$
>  <CHAIN_SEQUENCE>
QVQLVESGGGLVQAGGSLRLSCAASGSTSKSYTMGWYRQAPGKERELVAAISYSGVSTYYADSVKGRFTISRDNAKNTVYLQMNSLKPEDTAVYDGAADWVPRQYPGRGGYWGQGTQVTVSS

>  <ENDPOINT>
polyreactivity (PSR sort gate)

>  <MEASURED_VALUE>
high polyreactivity

$$$$
>  <CHAIN_SEQUENCE>
QVQLVESGGGLVQAGCSLRLSCAASGSTFWFNGMGWYRQAPGKERELVAVITFSTGSTSYADSVKGRFTISRDDAKNTVYLQMNSLKAEDTAGYYCAAEYVIYYCFEWLDLDYWGQGTQVTVSS

>  <ENDPOINT>
polyreactivity (PSR sort gate)

>  <MEASURED_VALUE>
high polyreactivity

$$$$
>  <CHAIN_SEQUENCE>
QVQLVESGGGLVQAGGSLRLSSAASGSTFVQNAMGWYRQAPGKERELVAAISRGGTSTYYADSVKGRFTISRDNAKNTVYLQMNSLKPEDTAVYYCAAYTSYLGYPYDYWGQGTQVTVSS

>  <ENDPOINT>
polyreactivity (PSR sort gate)

>  <MEASURED_VALUE>
high polyreactivity

$$$$
